molecular target: UniProt:P48067; test: Radioligand binding assays using recombinant CHO cell membranes expressing human GlyT1; settings: Ki, radioligand binding to human GlyT1c transporter-expressing CHO cell membranes
measurement_kind: Ki

Take a look at these entries with their results.
compound="Cn1cnc(S(=O)(=O)N2CC(C(=O)NCc3ccc(F)c(F)c3)C3(CCCCC3)C2)c1 (stereo not shown) [Example 882]" measured_result="≤ 1 µM"
compound="CCCCNC(=O)O[C@@H]1CN(S(=O)(=O)c2cn(C)cn2)C[C@H]1c1ccc(F)cc1 [Example 699]" measured_result="≤ 1 µM"
compound="Cn1cnc(S(=O)(=O)N2C[C@@H](NCc3ccc(C(F)(F)F)cc3Cl)[C@H](c3ncccc3F)C2)c1 (relative stereo) [Example 761]" measured_result="≤ 0.1 µM"
compound="Cn1cnc(S(=O)(=O)N2C[C@H](Nc3cccc(Cl)c3)[C@@H](C3OCCCO3)C2)c1 [Example 914]" measured_result="≤ 0.01 µM"
compound="Cc1cccc(N[C@H]2CN(S(=O)(=O)c3cn(C)cn3)C[C@@H]2C2OCCCO2)c1 [Example 917]" measured_result="≤ 0.1 µM"
compound="Cn1cnc(S(=O)(=O)N2CC3CCCN(C(=O)c4ccc(Cl)cc4Cl)C3C2)c1 (stereo not shown) [Example 873]" measured_result="≤ 10 µM"

# next compound below
Lookup: State its Ki for this compound: Cn1cnc(S(=O)(=O)N2C[C@H](NCc3ccc(F)cc3)[C@@H](C3OCCCO3)C2)c1 [Example 906]
Found: ≤ 1 µM

---

molecular target: human GlyT1c transporter (Homo sapiens); assay: Radioligand binding assays using recombinant CHO cell membranes expressing human GlyT1; details: Ki, radioligand binding to human GlyT1c transporter-expressing CHO cell membranes
Sequence (P48067 whole entry): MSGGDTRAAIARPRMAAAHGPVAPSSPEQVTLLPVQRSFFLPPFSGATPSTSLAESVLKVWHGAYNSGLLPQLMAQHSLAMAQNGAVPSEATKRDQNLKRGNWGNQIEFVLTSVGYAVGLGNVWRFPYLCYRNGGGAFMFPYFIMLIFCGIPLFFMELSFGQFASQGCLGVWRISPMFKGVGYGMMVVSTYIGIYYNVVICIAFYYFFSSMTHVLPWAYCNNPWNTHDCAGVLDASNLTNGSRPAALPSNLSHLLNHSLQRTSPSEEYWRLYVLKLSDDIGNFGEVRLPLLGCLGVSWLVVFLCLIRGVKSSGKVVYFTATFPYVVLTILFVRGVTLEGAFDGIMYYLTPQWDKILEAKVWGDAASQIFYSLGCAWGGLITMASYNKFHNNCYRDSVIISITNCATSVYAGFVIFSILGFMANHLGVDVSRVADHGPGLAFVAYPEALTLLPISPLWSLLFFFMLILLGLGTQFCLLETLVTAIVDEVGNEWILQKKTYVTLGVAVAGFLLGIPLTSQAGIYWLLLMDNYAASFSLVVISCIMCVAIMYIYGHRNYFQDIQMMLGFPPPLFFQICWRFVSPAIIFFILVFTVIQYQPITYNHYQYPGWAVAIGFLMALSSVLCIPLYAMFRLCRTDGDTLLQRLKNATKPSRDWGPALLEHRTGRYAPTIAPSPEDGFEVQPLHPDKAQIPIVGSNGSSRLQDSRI
pKi: −log10 of the molar value.
Consider the following compounds; for each one, report its pKi.

Take a look at these entries with their results.
compound=Cc1nc(CN[C@H]2CN(S(=O)(=O)c3cn(C)cn3)C[C@@H]2c2ccccc2)sc1Br measurement_target="human GlyT1c transporter (Homo sapiens)" measured_result="≥ 6.00"
compound="CN1CCCCC1C1CN(S(=O)(=O)c2cn(C)cn2)CC1NC1CCc2ccccc21 (stereo not shown)" measurement_target="human GlyT1c transporter (Homo sapiens)" measured_result="≥ 7.00"
compound=Cn1cnc(S(=O)(=O)N2C[C@H](NCCCCC3OCC(C)(C)CO3)[C@@H](c3ccc(F)cc3)C2)c1 measurement_target="human GlyT1c transporter (Homo sapiens)" measured_result="≥ 6.00"
compound="CCCCCCN1CCCC2CN(S(=O)(=O)c3cn(C)cn3)CC21 (stereo not shown)" measurement_target="human GlyT1c transporter (Homo sapiens)" measured_result="< 5.00"
compound=Cn1cnc(S(=O)(=O)N2C[C@H](Nc3cc(OCC(F)(F)F)ccn3)[C@@H](c3ccccc3)C2)c1 measurement_target="human GlyT1c transporter (Homo sapiens)" measured_result="≥ 8.00"
compound="Cn1cnc(S(=O)(=O)N2C3CCC2C(c2ccc(F)cc2)C3Nc2ccc(F)c(C(F)(F)F)c2)c1 (stereo not shown)" measurement_target="human GlyT1c transporter (Homo sapiens)" measured_result="≥ 5.00"

Please find the next compound below.
Lookup: Name the recorded pKi of the item Cn1cnc(S(=O)(=O)N2CC3CCCCC3(NC(=O)c3ccc(Cl)cc3Cl)C2)c1 (stereo not shown) in your answer.
Found: ≥ 7.00

Sourced from patent US9650334B2
